- System: caterpillars of the armyworm (Spodoptera frugiperda)
- ASSAY_NOTES: Spodoptera frugiperda test (SPODFR spray treatment)
- Format: in vivo
- ASSAY_CONDITIONS: Spodoptera frugiperda, 168 h; application rate 100 g/ha, after 7 days; read-out: activity in % (caterpillars killed)
Task for the reader: assign each of the following compounds its reported pest or weed control at 100 g/ha.
Give just the number in %; leave the unit off.

Req: Reported pest or weed control at 100 g/ha, compound Cc1c(F)ccc(C(=O)NCc2cccc(OC(F)(F)F)c2)c1NC(=O)c1cc(Cn2nnc(C(F)(F)F)n2)nn1-c1ncccc1Cl : ____
Resp: 100

Req: What do you have for O=C(NCc1cccc(Cl)c1)c1cc(Cl)cc(F)c1NC(=O)c1cc(Cn2nnc(C(F)(F)F)n2)nn1-c1ncccc1Cl ?
Resp: 100

Req: What do you have for O=C(NCc1ccccc1OC(F)(F)F)c1cc(Cl)cc(F)c1NC(=O)c1cc(Cn2nnc(C(F)(F)F)n2)nn1-c1ncccc1Cl ?
Resp: 100

Req: What do you have for Cc1cc(Cl)cc(C(=O)NCc2ccc(OC(F)(F)F)cc2)c1NC(=O)c1cc(Cn2nnc(C(F)F)n2)nn1-c1ncccc1Cl ?
Resp: 100

Req: What do you have for Cc1c(F)ccc(C(=O)NCc2ccc(OC(F)(F)F)cc2)c1NC(=O)c1cc(Cn2nnc(C(F)(F)F)n2)nn1-c1ncccc1Cl ?
Resp: 100

Req: What do you have for Cc1cc(C#N)cc(C(=O)NCc2ccccc2)c1NC(=O)c1cc(Cn2nnc(C(F)(F)F)n2)nn1-c1ccccc1Cl ?
Resp: 100

Req: What do you have for Cc1cc(Cl)cc(C(=O)N[C@@H](C)c2ccc([N+](=O)[O-])cc2)c1NC(=O)c1cc(Cn2nnc(C(F)(F)F)n2)nn1-c1ncccc1Cl ?
Resp: 100

Req: What do you have for O=C(NCc1cccc(OC(F)(F)F)c1)c1cc2ccccc2c(Cl)c1NC(=O)c1cc(Cn2nnc(C(F)(F)F)n2)nn1-c1ncccc1Cl ?
Resp: 100

Req: What do you have for Cc1cc(Cl)cc(C(=O)NCc2ccc(OC(F)(F)F)cc2)c1NC(=O)c1cc(Cn2nnc(C(F)(F)F)n2)nn1-c1ncccc1Cl ?
Resp: 100

Req: What do you have for Cc1cc(C#N)cc(C(=O)NCc2cccc(OC(F)(F)F)c2)c1NC(=O)c1cc(Cn2nnc(C(F)(F)F)n2)nn1-c1ncccc1Cl ?
Resp: 100

Req: What do you have for Cc1cc(Cl)cc(C(=O)NCc2cccc(-c3ccccc3)n2)c1NC(=O)c1cc(Cn2nnc(C(F)(F)F)n2)nn1-c1ncccc1Cl ?
Resp: 100

Req: What do you have for Cc1cc(I)cc(C(=O)NCc2ccc(OC(F)(F)F)cc2)c1NC(=O)c1cc(Cn2nnc(C(F)(F)C(F)(F)F)n2)nn1-c1ncccc1Cl ?
Resp: 100

Req: What do you have for Cc1cc(C#N)cc(C(=O)NCc2cccc(OC(F)(F)F)c2)c1NC(=O)c1cc(Cn2nnc(C(F)F)n2)nn1-c1ncccc1Cl ?
Resp: 100

----------
- ASSAY_NOTES: log P by HPLC on reversed-phase columns (EEC Directive 79/831 Annex V.A8)
- Type: physicochemical
- ASSAY_CONDITIONS: pH 2.7
PARAMETER_MEASURED: log P (second value after the slash)
Lab note: jot down the number only; don't add units.

Req: Reported log P (second value after the slash), compound Cc1cc(C#N)cc(C(=O)NC2=NCCS2)c1NC(=O)c1cc(Cn2nnc(C(F)(F)F)n2)nn1-c1ncccc1Cl : ____
Resp: 2.75

Req: What do you have for Cc1cc(Cl)cc(C(=O)NC2=NCCS2)c1NC(=O)c1cc(Cn2nnc(C(F)(F)F)n2)nn1-c1ncccc1Cl ?
Resp: 3.14

Req: What do you have for Cc1cc(Cl)cc(C(=O)N[C@@H]2CCOC2=O)c1NC(=O)c1cc(Cn2nnc(C(F)(F)F)n2)nn1-c1ncccc1Cl ?
Resp: 2.53

Req: What do you have for Cc1cc(Cl)cc(C(=O)NC2CCN(C)C2=O)c1NC(=O)c1cc(Cn2nnc(C(F)(F)F)n2)nn1-c1ncccc1Cl (stereo not shown) ?
Resp: 2.36

Req: What do you have for Cc1cc(C#N)cc(C(=O)NC2CCS(=O)(=O)C2)c1NC(=O)c1cc(Cn2nnc(C(F)(F)F)n2)nn1-c1ncccc1Cl (stereo not shown) ?
Resp: 2.17

Req: What do you have for Cc1cc(C#N)cc(C(=O)NC2CCSC2=O)c1NC(=O)c1cc(Cn2nnc(C(F)(F)F)n2)nn1-c1ncccc1Cl (stereo not shown) ?
Resp: 2.57

Req: What do you have for Cc1cc(C#N)cc(C(=O)NC2=NCCS2)c1NC(=O)c1cc(Cn2nnc(C(F)(F)C(F)(F)F)n2)nn1-c1ncccc1Cl ?
Resp: 3.18

Req: What do you have for Cc1cc(Cl)cc(C(=O)NC2=NCCS2)c1NC(=O)c1cc(Cn2nnc(C(F)(F)C(F)(F)F)n2)nn1-c1ncccc1Cl ?
Resp: 3.58

Req: What do you have for Cc1cc(Cl)cc(C(=O)N[C@@H]2CCOC2=O)c1NC(=O)c1cc(Cn2nnc(C(F)(F)C(F)(F)F)n2)nn1-c1ncccc1Cl ?
Resp: 2.92

Req: What do you have for Cc1cc(C#N)cc(C(=O)NC2CCN(C)C2=O)c1NC(=O)c1cc(Cn2nnc(C(F)(F)F)n2)nn1-c1ncccc1Cl (stereo not shown) ?
Resp: 2.19
